Some molecules, each annotated with its measured pEC50.
target: human A2B (Homo sapiens, UniProt P29275); test: cAMP HTRF assay for Gs coupled receptor, agonist test; conditions: agonist activity; HEK293 cells expressing recombinant human A2B; read-out: A2BAR EC50
Sequence (P29275 whole entry): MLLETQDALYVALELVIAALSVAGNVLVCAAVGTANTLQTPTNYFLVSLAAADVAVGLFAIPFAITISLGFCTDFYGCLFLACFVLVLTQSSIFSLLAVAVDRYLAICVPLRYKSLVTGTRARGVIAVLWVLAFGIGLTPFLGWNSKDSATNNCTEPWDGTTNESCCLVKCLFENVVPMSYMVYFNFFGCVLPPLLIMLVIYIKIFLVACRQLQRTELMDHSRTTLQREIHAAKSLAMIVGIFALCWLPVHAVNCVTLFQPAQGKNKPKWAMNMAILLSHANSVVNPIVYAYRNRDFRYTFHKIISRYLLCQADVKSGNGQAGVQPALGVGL
pEC50: −log10 of the molar value.

Take a look at these entries with their results.
{"molecule": "CNc1nc(OCC2COC2)c(C#N)c(-c2ccc(OC3COC3)cc2)c1C#N [Compound 288]", "pEC50": "< 5.00"}
{"molecule": "COCCOc1ccc(-c2c(C#N)c(N)nc(SCC3CCO3)c2C#N)cc1 (centres unmarked) [Compound 112]", "pEC50": "< 5.00"}
{"molecule": "COCCOc1ccc(-c2c(C#N)c(N)nc(SCc3ccnc4[nH]ccc34)c2C#N)cc1 [Compound 4]", "pEC50": 5.62}
{"molecule": "COCCOc1ccc(-c2c(C#N)c(SCc3ccccn3)nc(N3CC(F)C3)c2C#N)cc1 [Compound 250]", "pEC50": "< 5.00"}
{"molecule": "CNc1nc(SCc2cccnc2)c(C#N)c(-c2ccc(OCCOC(F)F)cc2)c1C#N [Compound 258]", "pEC50": "< 5.00"}

Name the recorded pEC50 of the item N#Cc1c(SCCO)nc(N2CCC2)c(C#N)c1-c1ccc(OCCO)cc1 [Compound 90] in your answer. 6.06

Name the recorded pEC50 of the item N#Cc1c(N)nc(SCc2cnccn2)c(C#N)c1-c1ccc(OCCO)cc1 [Compound 172] in your answer. 8.41

Name the recorded pEC50 of the item N#Cc1c(N)nc(SCC2CCOC2)c(C#N)c1-c1ccc(OCCO)cc1 (centres unmarked) [Compound 28] in your answer. < 5.00

Attribution: patent US20250170112A1
